Source listed as ChEMBL document CHEMBL1138796.

test: Partition coefficient (logP); type: physicochemical; settings: octanol/water; read-out: logP
QUANTITY NAME: logP

- MOLECULE: "CCN(CCCN1CCc2cc(OC)ccc2C1)S(=O)(=O)c1ccc(OC)cc1"
  RECORDED RESULT: 3.3
- MOLECULE: "COc1ccc2c(c1)c(CCN(C)C)cn2C"
  RECORDED RESULT: 2.7
- MOLECULE: "CSc1ccc2c(c1)[C@@H](N1CCN(C)CC1)Cc1ccccc1S2"
  RECORDED RESULT: 3.4
- MOLECULE: "COc1ccccc1N1CCN(CCNS(=O)(=O)c2ccc(C)cc2)CC1"
  RECORDED RESULT: 2.2
- MOLECULE: "Cc1cccc(S(=O)(=O)N2CCC[C@@H]2CCN2CCC(C)CC2)c1 [SB-258741]"
  RECORDED RESULT: 3.7
- MOLECULE: "COc1ccc2c(c1)CCN(CCCNS(=O)(=O)c1ccc(C)cc1)C2"
  RECORDED RESULT: 3
- MOLECULE: "COc1ccc2c(c1)CCN(CCCNS(=O)(=O)c1ccccc1)C2"
  RECORDED RESULT: 2.3
